From: patent US8211854B2

Target: His-CHK1 (Homo sapiens, UniProt O14757)
Construct: fused on or other part: His tag
Sequence (O14757 1-265 limits assumed): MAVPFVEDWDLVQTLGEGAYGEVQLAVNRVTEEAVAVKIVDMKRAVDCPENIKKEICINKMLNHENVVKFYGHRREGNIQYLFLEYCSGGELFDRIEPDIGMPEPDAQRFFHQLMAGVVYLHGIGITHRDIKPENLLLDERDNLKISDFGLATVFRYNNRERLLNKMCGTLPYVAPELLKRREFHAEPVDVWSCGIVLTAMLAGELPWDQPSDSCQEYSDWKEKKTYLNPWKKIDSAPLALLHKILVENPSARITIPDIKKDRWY
Assay: CHK1 SPA Assay
Format: biochemical
Conditions: read-out: CHK1 inhibitory activity (IC50)
Assignment: determine reported pIC50 for the given compounds.
Give bare numbers, as −log10 of the molar value.

- Cn1cc(-c2cnn3c(N)c(I)c(C4CCCNC4)nc23)cn1 (centres unmarked): 8.52

Now for a further compound.
May I ask what pIC50 has been recorded for CC#Cc1c(C2CCCNC2)nc2c(-c3cnn(C)c3)cnn2c1N (centres unmarked) ? 7.35

====

For each record, write down the corresponding pIC50.
molecular target: His-CHK1 (Homo sapiens); construct: fused on or other part: His tag; experiment: CHK1 SPA Assay; type: biochemical; conditions: recombinant His-CHK1, biotinylated CDC25C peptide substrate, 1 μM ATP, 2 hours at room temperature; read-out: CHK1 inhibitory activity (IC50)
Give bare numbers, as −log10 of the molar value.

* Nc1c(Br)c(N2CC[C@H](N)C2)nc2c(-c3ccsc3)cnn12 | 6.37
* Cn1cc(-c2cnn3c(Nc4ccncc4)cc(C4CCCNC4)nc23)cn1 (centres unmarked) | 7.00
* Cc1cc(Nc2cc(C3CCCNC3)nc3c(-c4coc(C#N)c4)cnn23)sn1 (centres unmarked) | 8.15
* Cn1cc(-c2cnn3c(N)c(-c4cccs4)c(C4CCCNC4)nc23)cn1 (centres unmarked) | 7.05
* Cc1cc(Nc2cc(N3CC[C@@H](N)C3)nc3c(-c4cnn(C)c4)cnn23)sn1 | 7.30
* Cn1cc(-c2cnn3c(N)cc(CC4CCNCC4)nc23)cn1 | 6.40
* Cn1cc(-c2cnn3c(N)c(Br)c(CCCN)nc23)cn1 | 7.96
* CN(C)c1cccc(Nc2cc(C3CCCNC3)nc3c(-c4cnn(C)c4)cnn23)c1 (centres unmarked) | 6.60
* Nc1c(Br)c(C2CCCNC2)nc2c(-c3ccoc3)cnn12 (centres unmarked) | 7.60
* N#Cc1ccc(-c2cnn3c(N)cc(C4CCCNC4)nc23)cc1 (centres unmarked) | 6.92

Below is a list of molecules. For each, state its recorded pIC50.
1. Cn1cc(-c2cnn3c(N)c(Br)c(C4CNCCS4)nc23)cn1 (centres unmarked)
2. Cn1cc(-c2cnn3c(Nc4ccc(-n5ccnc5)cc4)cc(C4CCCNC4)nc23)cn1 (centres unmarked)

[8.22, 7.22]

Consider the following items and state reported pIC50 for each.
1. Cn1cc(-c2cnn3c(Nc4cccc(S(N)(=O)=O)c4)cc(C4CCCNC4)nc23)cn1 (centres unmarked)
2. N#Cc1cc(-c2cnn3c(N)c(Br)c(C4CCCNC4)nc23)co1 (centres unmarked)

6.41
8.40
